# assayProtocol: Tigecycline plasma PK and % F after PO enteric-coated capsule in dogs
# Assay type: in vivo, Beagle dogs
# conditionsUsed: female, beagle, dog, plasma, po, 30 mg, Tigecycline Plasma Concentration, 5.0 hr; PO 30 mg unformulated enteric-coated capsule, SC430; mean
parameterMeasured: concentration at 5 hr (ng/mL)
Please reply with the bare figure in ng/mL and do not write the unit itself.

Query: Any idea what concentration at 5 hr was measured for CN(C)c1cc(NC(=O)CNC(C)(C)C)c(O)c2c1C[C@H]1C[C@H]3[C@H](N(C)C)C(O)=C(C(N)=O)C(=O)[C@@]3(O)C(O)=C1C2=O ?
Result: 0

---

# assayProtocol: Tigecycline plasma PK after IV bolus in dogs
# Format: in vivo, Beagle dogs
# conditionsUsed: female, beagle, dog, plasma, iv, […], IV bolus 5 mg ([…]), SC431; read-out: AUC(0-t), mean
parameterMeasured: AUC(0-t) (ng·h/mL)
API: value field is a number in ng·h/mL; no unit string.

Query: Returns the measured AUC(0-t) for the input compound. Input: CN(C)c1cc(NC(=O)CNC(C)(C)C)c(O)c2c1C[C@H]1C[C@H]3[C@H](N(C)C)C(O)=C(C(N)=O)C(=O)[C@@]3(O)C(O)=C1C2=O [Tigecycline]
Result: 411

---

# assayProtocol: in vivo
# Type: in vivo, Beagle dogs
# conditionsUsed: female, beagle, dog, in vivo, iv, 0.1 mg, Tmax, Mean
parameterMeasured: Tmax (min)
Your answer should be a plain number; it is taken to be in min.

Query: Give the measured Tmax of NC[C@H]1O[C@H](O[C@H]2[C@H](O)[C@@H](O[C@H]3O[C@H](CO)[C@@H](O)[C@H](N)[C@H]3O)[C@H](N)C[C@@H]2N)[C@H](N)C[C@@H]1O [Tobramycin] .
Result: 5

---

# assayProtocol: Tigecycline plasma PK and % F after PO enteric-coated capsule in dogs
# Format: in vivo, Beagle dogs
# conditionsUsed: female, beagle, dog, plasma, po, 15 mg, Tigecycline Plasma Concentration, 150 min; PO 15 mg enteric-coated capsule with 500 mg CA and 100 mg LLC, SC424; mean
parameterMeasured: concentration at 150 min (ng/mL)
Number only, in ng/mL; omit the unit.

Query: Please look up its concentration at 150 min: CN(C)c1cc(NC(=O)CNC(C)(C)C)c(O)c2c1C[C@H]1C[C@H]3[C@H](N(C)C)C(O)=C(C(N)=O)C(=O)[C@@]3(O)C(O)=C1C2=O
Result: 41.7

---

# assayProtocol: Tigecycline plasma PK and % F after PO enteric-coated capsule in dogs
# Format: in vivo, Beagle dogs
# conditionsUsed: female, beagle, dog, plasma, po, 30 mg, PO 30 mg enteric-coated capsule with 500 mg CA and 100 mg LLC ([…]), SC430; mean excluding animal 5256; read-out: Cmax
parameterMeasured: Cmax (ng/mL)
Entry rule: numbers only, all in ng/mL.

Query: // returns reported Cmax for input CN(C)c1cc(NC(=O)CNC(C)(C)C)c(O)c2c1C[C@H]1C[C@H]3[C@H](N(C)C)C(O)=C(C(N)=O)C(=O)[C@@]3(O)C(O)=C1C2=O
Result: 121

---

# assayProtocol: Tigecycline plasma PK after IV bolus in dogs
# Type: in vivo, Beagle dogs
# conditionsUsed: female, beagle, dog, plasma, intravenous, 1 mg, Tigecycline Plasma Concentration, 90 min; 1 mg IV in PBS (0.08 mg/kg), SC427; individual dogs
parameterMeasured: concentration at 90 min (ng/mL)
Give a bare numeral; the unit ng/mL is implied.

Query: What value of concentration at 90 min has been reported for the following compound? CN(C)c1cc(NC(=O)CNC(C)(C)C)c(O)c2c1C[C@H]1C[C@H]3[C@H](N(C)C)C(O)=C(C(N)=O)C(=O)[C@@]3(O)C(O)=C1C2=O [Tigecycline]
Result: 11.2

---

# assayProtocol: Tigecycline plasma PK and % F after PO enteric-coated capsule in dogs
# Format: in vivo, Beagle dogs
# conditionsUsed: female, beagle, dog, plasma, po, 15 mg, Tigecycline Plasma Concentration, 45 min; PO 15 mg enteric-coated capsule with 500 mg CA and 100 mg LLC, SC424; mean
parameterMeasured: concentration at 45 min (ng/mL)
The reply should contain only the number, in ng/mL.

Query: Any idea what its concentration at 45 min is? The molecule is CN(C)c1cc(NC(=O)CNC(C)(C)C)c(O)c2c1C[C@H]1C[C@H]3[C@H](N(C)C)C(O)=C(C(N)=O)C(=O)[C@@]3(O)C(O)=C1C2=O
Result: 8.45

---

# assayProtocol: Tigecycline plasma PK after IV bolus in dogs
# Assay type: in vivo, Beagle dogs
# conditionsUsed: female, beagle, dog, plasma, intravenous, 1 mg, Tigecycline Plasma Concentration, 30 min; 1 mg IV in PBS (0.08 mg/kg), SC427; individual dogs
# Procedure: Adult beagle dogs weighing approximately 9 to 15 kg were used in the study. […] Room temperature was set to be maintained between approximately 20±5° C. Relative humidity was monitored but not controlled. […] The unknown concentration in dog plasma samples was determined by interpolation of the peak area ratios of analyte:internal standard versus the ratio of their nominal concentrations into the regression line obtained from calibration standards spiked in pooled dog plasma. […]
parameterMeasured: concentration at 30 min (ng/mL)
Your answer is read as ng/mL, so omit the unit and give the number.

Query: Record request: concentration at 30 min value, item CN(C)c1cc(NC(=O)CNC(C)(C)C)c(O)c2c1C[C@H]1C[C@H]3[C@H](N(C)C)C(O)=C(C(N)=O)C(=O)[C@@]3(O)C(O)=C1C2=O [Tigecycline]
Result: 17.6

---

# assayProtocol: Tigecycline plasma PK and % F after intraduodenal (ID) injection in anesthetized rats
# Type: in vivo, Sprague-Dawley Rats
# conditionsUsed: female, Sprague-Dawley, rat, plasma, other: intraduodenal bolus injection, 9 mg/kg, pH 3.5, ID, 400 mM CA (pH 3.5), 26 mM LLC, 9.0 mg/kg (RA853), parent Tigecycline peak only; 0 min
parameterMeasured: concentration at 0 min
Answer with the figure and its unit, nothing else.

Query: What concentration at 0 min value was documented for this compound, CN(C)c1cc(NC(=O)CNC(C)(C)C)c(O)c2c1C[C@H]1C[C@H]3[C@H](N(C)C)C(O)=C(C(N)=O)C(=O)[C@@]3(O)C(O)=C1C2=O [Tigecycline] ?
Result: 0 ng/mL

---

# assayProtocol: Tigecycline plasma PK and % F after PO enteric-coated capsule in dogs
# Type: in vivo, Beagle dogs
# conditionsUsed: female, beagle, dog, plasma, po, 15 mg, Tigecycline Plasma Concentration, 45 min; PO 15 mg unformulated enteric-coated capsule, SC424; mean
parameterMeasured: concentration at 45 min (ng/mL)
The answer is to be given in ng/mL; state only the numeric part.

Query: Using the record for CN(C)c1cc(NC(=O)CNC(C)(C)C)c(O)c2c1C[C@H]1C[C@H]3[C@H](N(C)C)C(O)=C(C(N)=O)C(=O)[C@@]3(O)C(O)=C1C2=O [Tigecycline] , report its concentration at 45 min.
Result: 0

---

# assayProtocol: Tigecycline plasma PK and % F after intraduodenal (ID) injection in anesthetized rats
# Type: in vivo, Sprague-Dawley Rats
# conditionsUsed: female, Sprague-Dawley, rat, plasma, 4.6 mg/kg, RA861, ID, 26 mM LLC alone, mean dose 4.6 mg/kg
parameterMeasured: AUC(0-t) (ng·h/mL)
Hi! Could you send only the number? It should be in ng·h/mL, unit omitted.

Query: So what's the measured AUC(0-t) for this one? CN(C)c1cc(NC(=O)CNC(C)(C)C)c(O)c2c1C[C@H]1C[C@H]3[C@H](N(C)C)C(O)=C(C(N)=O)C(=O)[C@@]3(O)C(O)=C1C2=O [Tigecycline]
Result: 68

---

# assayProtocol: Tigecycline plasma PK after IV bolus in dogs
# Type: in vivo, Beagle dogs
# conditionsUsed: female, beagle, dog, plasma, intravenous, 5 mg, Tigecycline Plasma Concentration, 15 min; 5 mg IV in PBS ([…]), SC431; mean
parameterMeasured: concentration at 15 min (ng/mL)
Could you give me the number in ng/mL? Just the number is fine.

Query: Dear colleague, I am looking for the recorded concentration at 15 min of the following compound: CN(C)c1cc(NC(=O)CNC(C)(C)C)c(O)c2c1C[C@H]1C[C@H]3[C@H](N(C)C)C(O)=C(C(N)=O)C(=O)[C@@]3(O)C(O)=C1C2=O
Result: 111

---

# assayProtocol: Tigecycline plasma PK and % F after PO enteric-coated capsule in dogs
# Type: in vivo, Beagle dogs
# conditionsUsed: female, beagle, dog, plasma, po, 30 mg, Tigecycline Plasma Concentration, 0.7 hr; PO 30 mg unformulated enteric-coated capsule, SC430; individual dogs
# Method: Adult beagle dogs weighing approximately 9 to 15 kg were used in the study. […] Room temperature was set to be maintained between approximately 20±5° C. Relative humidity was monitored but not controlled. […] The unknown concentration in dog plasma samples was determined by interpolation of the peak area ratios of analyte:internal standard versus the ratio of their nominal concentrations into the regression line obtained from calibration standards spiked in pooled dog plasma. […]
parameterMeasured: concentration at 0.7 hr (ng/mL)
Expressed in ng/mL, but write only the number.

Query: GET /values?readout=concentration at 0.7 hr&item= CN(C)c1cc(NC(=O)CNC(C)(C)C)c(O)c2c1C[C@H]1C[C@H]3[C@H](N(C)C)C(O)=C(C(N)=O)C(=O)[C@@]3(O)C(O)=C1C2=O [Tigecycline]
Result: 0
